# target-or-test-system: recombinant Stat3 (binding to EGFR Y1068 phosphododecapeptide) (Homo sapiens, UniProt P40763)
# Sequence (P40763 whole entry, species assumed): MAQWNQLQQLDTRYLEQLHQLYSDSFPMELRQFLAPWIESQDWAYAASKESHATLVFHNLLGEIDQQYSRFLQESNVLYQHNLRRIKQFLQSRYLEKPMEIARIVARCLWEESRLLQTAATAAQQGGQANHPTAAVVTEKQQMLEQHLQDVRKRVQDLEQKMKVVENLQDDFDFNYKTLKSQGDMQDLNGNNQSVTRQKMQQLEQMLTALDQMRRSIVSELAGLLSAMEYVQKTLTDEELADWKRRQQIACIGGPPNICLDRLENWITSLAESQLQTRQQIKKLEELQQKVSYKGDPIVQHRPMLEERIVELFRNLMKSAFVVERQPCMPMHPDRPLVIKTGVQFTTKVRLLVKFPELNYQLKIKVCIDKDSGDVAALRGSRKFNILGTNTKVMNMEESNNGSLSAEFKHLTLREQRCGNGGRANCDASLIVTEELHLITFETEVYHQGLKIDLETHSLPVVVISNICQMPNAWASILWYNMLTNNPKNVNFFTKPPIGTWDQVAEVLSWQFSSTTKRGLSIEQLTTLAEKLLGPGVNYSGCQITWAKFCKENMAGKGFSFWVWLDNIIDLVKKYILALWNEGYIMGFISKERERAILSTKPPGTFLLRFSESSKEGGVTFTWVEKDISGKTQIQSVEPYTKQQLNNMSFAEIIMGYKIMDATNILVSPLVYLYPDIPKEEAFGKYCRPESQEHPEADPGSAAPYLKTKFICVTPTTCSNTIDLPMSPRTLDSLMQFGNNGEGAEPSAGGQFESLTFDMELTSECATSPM
# assay-name: Stat3 SH2/pY-peptide SPR binding inhibition assay
# study-conditions: Stat3 500 nM, immobilized EGFR Y1068 phosphododecapeptide; read-out: SPR IC50 (competition with pY-peptide for binding to Stat3)
Known pIC50 of a selection of molecules
Friendly reminder that pIC50 comes from taking -log10 of the concentration in mol/L.

Reference set (2 entries):
Q. Dear colleague, I am looking for the recorded pIC50 of the following molecule: O=C(O)c1ccc(C=CC(=O)c2ccc3c(c2)OCCO3)cc1
A. 3.35

Q. Dear colleague, I am looking for the recorded pIC50 of the following molecule: CCN1C(=O)C(=Cc2ccc(-c3cc(C(=O)O)ccc3Cl)o2)C(=O)N(CC)C1=S
A. 3.94

More entries:
Q. Dear colleague, I am looking for the recorded pIC50 of the following molecule: CCOc1cc(C=C2C(=O)c3ccccc3C2=O)cc(Cl)c1OCc1cccc(C(=O)O)c1
A. 3.59
